Data credit: patent US6030823A

Test system: D-aminoacylase derived from Sebekia benihana IFO14309
Assay type: biochemical
Details: metal salt 10 mM
QUANTITY KIND: Residual activity (%)
Give bare numbers, in %.

Sample answers from the record:
[Cl-].[Cl-].[Co+2] [CoCl2] = 9.2
[Cl][Mn][Cl] [MnCl2] = 61
[Cl][Cu][Cl] [CuCl2] = 0
[Ba+2].[Cl-].[Cl-] [BaCl2] = 92
[Cl-].[Cl-].[Zn+2] [ZnCl2] = 0

# map each molecule to its Residual activity
1. [Ca+2].[Cl-].[Cl-] [CaCl2]
2. [Cl][Ni][Cl] [NiCl2]
3. [Cl][Fe][Cl] [FeCl2]
4. [Cl-].[K+] [KCl]
5. [Cl][Hg][Cl] [HgCl2]
6. [Cl-].[Cl-].[Mg+2] [MgCl2]

1. 92
2. 2.9
3. 2.9
4. 92
5. 0
6. 100
